Record form. Attribute: IC50. Fill in for each entry.
# Tested on: murine splenocytes (Balb/c and C57B1/6)
# METHOD DESCRIPTION: Two-way mixed lymphocyte reaction (MLR) assay;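 further: proliferation read as tritiated thymidine incorporation into newly made DNA after an overnight pulse, expressed as percent of control activity, IC50 interpolated per compound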
# CONDITION CONTEXT: read-out: two-way mixed lymphocyte reaction (MLR) suppression MLR, IC50; Balb/c + C57B1/6 splenocytes, 96 h, [3H]thymidine
Numbered stars: 1 amine (or outer) side, 2 acyl side, 3 side chain; on linkers, the order of the positions; unused ones are H or OH. Bridge positions count the residues as written; N and C are the ends. Square brackets hold non-standard residues; d marks the D form. Peptide text beside a SMILES is read from it. X2 = CC[C@H](C)[C@@H](N[*:1])[C@@H](O)CC(=O)O[C@@H](C(=O)[C@H](C)C(=O)[*:2])C(C)C; X1 = CC[C@H](C)[C@@H](N[*:1])[C@@H](O)CC(=O)O[C@H](C(=O)[C@H](C)C(=O)[*:2])C(C)C; NMeY = CN[C@@H](Cc1ccc(O)cc1)C(=O)O; dNMeL = CN[C@H](CC(C)C)C(=O)O; pGlu = O=C1CC[C@@H](C(=O)O)N1; Lac = C[C@H](O)C(=O)O
Answer in nM, number only, no unit symbol.

Please give the measured IC50 for this compound: CC[C@H](C)[C@H]1NC(=O)[C@@H](NC(=O)[C@@H](CC(C)C)N(C)C(=O)[C@@H]2CCCN2C(=O)[C@H](C)OC(=O)[C@H](CCC(N)=O)NC(=O)[C@H](CCC(N)=O)NC(=O)[C@@H]2CCC(=O)N2)[C@@H](C)OC(=O)[C@H](Cc2ccc(OC)cc2)N(C)C(=O)[C@@H]2CCCN2C(=O)[C@H](CC(C)C)NC(=O)[C@@H](C)C(=O)[C@H](C(C)C)OC(=O)C[C@@H]1O [Compound 39, Didemnin E] ([pGlu]QQ[Lac]P[dNMeL]T[X1]LP[NMeY](Me); ester 7-C) 0.0084

Please give the measured IC50 for this compound: CC[C@H](C)[C@H]1NC(=O)[C@@H](NC(=O)[C@@H](CC(C)C)NC)[C@@H](C)OC(=O)[C@H](Cc2ccc(OC)cc2)N(C)C(=O)[C@@H]2CCCN2C(=O)[C@H](CC(C)C)NC(=O)[C@@H](C)C(=O)[C@@H](C(C)C)OC(=O)C[C@@H]1O [Compound 12, Epididemnin A1] (H-[dNMeL]T[X2]LP[NMeY](Me); ester 2-C) 86

Please give the measured IC50 for this compound: CC[C@H](C)[C@H]1NC(=O)[C@@H](NC(=O)[C@@H](CC(C)C)N(C)C(=O)[C@@H]2CCCN2C(=O)[C@H](C)O)[C@@H](C)OC(=O)[C@H](Cc2ccc(OC)cc2)N(C)C(=O)[C@@H]2CCCN2C(=O)[C@H](CC(C)C)NC(=O)[C@@H](C)C(=NO)[C@H](C(C)C)OC(=O)C[C@@H]1O [Compound 11, [Hip^3 oxime]Didemnin B] 0.85

====

# Tested on: concanavalin A-induced lymphoblasts (Con A splenocytes)
# METHOD DESCRIPTION: Lymphoblast viability (LbV) assay
# CONDITION CONTEXT: Con A-stimulated splenocytes (lymphoblasts), MTT
Numbered stars: 1 amine (or outer) side, 2 acyl side, 3 side chain; on linkers, the order of the positions; unused ones are H or OH. Bridge positions count the residues as written; N and C are the ends. Square brackets hold non-standard residues; d marks the D form. Peptide text beside a SMILES is read from it. * marks the point of attachment. X5 = CC[C@@H](C)[C@@H](N[*:1])[C@@H](O)CC(=O)O[C@H](C(=O)[C@H](C)C(=O)[*:2])C(C)C; X1 = CC[C@H](C)[C@@H](N[*:1])[C@@H](O)CC(=O)O[C@H](C(=O)[C@H](C)C(=O)[*:2])C(C)C; NMeY = CN[C@@H](Cc1ccc(O)cc1)C(=O)O; dNMeL = CN[C@H](CC(C)C)C(=O)O; pGlu = O=C1CC[C@@H](C(=O)O)N1; Cbz = O=C(OCc1ccccc1)*; Lac = C[C@H](O)C(=O)O; Propionyl = CCC(=O)*
Please use true (1) whenever cytotoxicity to lymphocytes LbV, LC50 is not below 2 nM, and false (0) whenever it is.

Quick check: does CC[C@H](C)[C@H]1NC(=O)[C@@H](NC(=O)[C@@H](CC(C)C)N(C)C(=O)[C@@H]2CCCN2C(=O)[C@H](C)OC(=O)[C@H](CCC(N)=O)NC(=O)[C@H](CCC(N)=O)NC(=O)[C@@H]2CCC(=O)N2)[C@@H](C)OC(=O)[C@H](Cc2ccc(OC)cc2)N(C)C(=O)[C@@H]2CCCN2C(=O)[C@H](CC(C)C)NC(=O)[C@@H](C)C(=O)[C@H](C(C)C)OC(=O)C[C@@H]1O [Compound 39, Didemnin E] ([pGlu]QQ[Lac]P[dNMeL]T[X1]LP[NMeY](Me); ester 7-C) have cytotoxicity to lymphocytes LbV, LC50 greater than or equal to 2 nM? false (0)

Quick check: does CC[C@H](C)[C@H]1NC(=O)[C@@H](NC(=O)[C@@H](CC(C)C)NC)[C@@H](C)OC(=O)[C@H](Cc2ccc(OC)cc2)N(C)C(=O)[C@@H]2CCCN2C(=O)[C@H](CC(C)C)NC(=O)[C@@H](C)C(=O)[C@H](C(C)C)OC(=O)C[C@@H]1OC(C)=O [Compound 7, O-Acetyldidemnin A] have cytotoxicity to lymphocytes LbV, LC50 greater than or equal to 2 nM? true (1)

Quick check: does CC[C@H](C)[C@H]1NC(=O)[C@@H](NC(=O)[C@@H](CC(C)C)N(C)C(=O)[C@@H]2CCCN2C(=O)C(C)O)[C@@H](C)OC(=O)[C@H](Cc2ccc(OC)cc2)N(C)C(=O)[C@@H]2CCCN2C(=O)[C@H](CC(C)C)NC(=O)[C@@H](C)C(=O)[C@H](C(C)C)OC(=O)C[C@@H]1O (stereo partly drawn) [Compound 1, didemnin B] have cytotoxicity to lymphocytes LbV, LC50 greater than or equal to 2 nM? false (0)

Quick check: does CC[C@@H](C)[C@H]1NC(=O)[C@@H](NC(=O)[C@@H](CC(C)C)N(C)C(=O)OCc2ccccc2)[C@@H](C)OC(=O)[C@H](Cc2ccc(OC)cc2)N(C)C(=O)[C@@H]2CCCN2C(=O)[C@H](CC(C)C)NC(=O)[C@@H](C)C(=O)[C@H](C(C)C)OC(=O)C[C@@H]1O [Compound 5, Z-[(3S,4R,5R)-Ist^2]Didemnin A] (Cbz-[dNMeL]T[X5]LP[NMeY](Me); ester 2-C) have cytotoxicity to lymphocytes LbV, LC50 greater than or equal to 2 nM? true (1)

Quick check: does CCC(=O)N1CCC[C@H]1C(=O)N(C)[C@H](CC(C)C)C(=O)N[C@@H]1C(=O)N[C@H]([C@@H](C)CC)[C@@H](O)CC(=O)O[C@@H](C(C)C)C(=O)[C@H](C)C(=O)N[C@@H](CC(C)C)C(=O)N2CCC[C@H]2C(=O)N(C)[C@@H](Cc2ccc(OC)cc2)C(=O)O[C@@H]1C [Compound 32, [Propionyl^9]Didemnin B] (Propionyl-P[dNMeL]T[X1]LP[NMeY](Me); ester 3-C) have cytotoxicity to lymphocytes LbV, LC50 greater than or equal to 2 nM? false (0)

Quick check: does CC[C@H](C)[C@H]1NC(=O)[C@@H](NC(=O)[C@@H](CC(C)C)N(C)C(=O)OCc2ccccc2)[C@@H](C)OC(=O)[C@H](Cc2ccc(OC)cc2)N(C)C(=O)[C@@H]2CCCN2C(=O)[C@H](CC(C)C)NC(=O)[C@@H](C)C(=O)[C@H](C(C)C)OC(=O)C[C@@H]1O [Compound 3, Z-Didemnin A] (Cbz-[dNMeL]T[X1]LP[NMeY](Me); ester 2-C) have cytotoxicity to lymphocytes LbV, LC50 greater than or equal to 2 nM? false (0)

Reference source: patent US6156724A
